- TARGET UNDER TEST: mTOR (Homo sapiens, UniProt P42345)
- Sequence (P42345 1360-2549 limits assumed): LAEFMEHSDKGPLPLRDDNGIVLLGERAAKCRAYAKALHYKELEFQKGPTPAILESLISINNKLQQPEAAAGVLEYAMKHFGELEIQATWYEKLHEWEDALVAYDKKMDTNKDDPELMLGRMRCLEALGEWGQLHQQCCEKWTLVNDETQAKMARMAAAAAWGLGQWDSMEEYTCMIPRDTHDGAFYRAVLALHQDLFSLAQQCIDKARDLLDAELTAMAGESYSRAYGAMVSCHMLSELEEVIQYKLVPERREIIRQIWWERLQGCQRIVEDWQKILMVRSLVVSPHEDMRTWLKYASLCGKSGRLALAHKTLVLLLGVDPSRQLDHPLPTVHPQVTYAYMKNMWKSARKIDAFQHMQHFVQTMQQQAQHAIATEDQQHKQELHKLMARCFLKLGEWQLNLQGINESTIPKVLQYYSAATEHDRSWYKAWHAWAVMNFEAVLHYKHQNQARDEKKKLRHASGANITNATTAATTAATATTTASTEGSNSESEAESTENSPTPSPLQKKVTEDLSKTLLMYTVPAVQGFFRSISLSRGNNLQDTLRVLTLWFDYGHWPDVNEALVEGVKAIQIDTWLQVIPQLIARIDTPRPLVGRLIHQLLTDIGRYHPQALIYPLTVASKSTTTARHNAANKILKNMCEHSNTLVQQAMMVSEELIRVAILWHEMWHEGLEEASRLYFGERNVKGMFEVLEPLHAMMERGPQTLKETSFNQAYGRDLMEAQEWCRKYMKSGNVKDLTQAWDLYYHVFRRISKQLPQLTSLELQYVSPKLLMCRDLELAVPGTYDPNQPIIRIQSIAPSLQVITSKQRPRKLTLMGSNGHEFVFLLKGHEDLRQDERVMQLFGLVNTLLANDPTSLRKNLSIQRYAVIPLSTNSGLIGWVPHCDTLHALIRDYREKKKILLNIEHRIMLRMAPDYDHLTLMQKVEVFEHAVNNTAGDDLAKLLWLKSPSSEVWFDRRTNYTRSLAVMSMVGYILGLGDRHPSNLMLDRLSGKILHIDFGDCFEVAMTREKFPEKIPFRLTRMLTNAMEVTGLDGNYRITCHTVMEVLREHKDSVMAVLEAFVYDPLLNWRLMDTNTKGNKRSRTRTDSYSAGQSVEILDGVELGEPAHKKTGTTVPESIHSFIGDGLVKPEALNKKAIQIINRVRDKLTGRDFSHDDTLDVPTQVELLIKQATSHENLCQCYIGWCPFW
pIC50: −log10 of the molar value.

COMPOUND | TARGET UNDER TEST | pIC50
CO[C@@H]1CC[C@H](N2CC(=O)Nc3ncc(-c4ccc(-c5nnc[nH]5)nc4C)nc32)C1 [Example 39] | mTOR (Homo sapiens, UniProt P42345) | 6.60 to 11.30
Cc1c(-c2cnc3c(n2)N(C2CCOCC2)CC(=O)N3)ccc(-c2nc[nH]n2)c1F [Example 27] | mTOR (Homo sapiens, UniProt P42345) | 6.60 to 11.30
CNc1ccc(-c2cnc3c(n2)N(CCC2CCOCC2)C(=O)CN3)cn1 [Example 184] | mTOR (Homo sapiens, UniProt P42345) | 6.60 to 11.30
O=C1CNc2ncc(-c3cn[nH]c3)nc2N1CCC1CCOCC1 [Example 201] | mTOR (Homo sapiens, UniProt P42345) | 5.00 to 6.00

###

Please consider the recorded pIC50 for UniProtKB P42345 in what follows.
pIC50: −log10 of the molar value.

COMPOUND | pIC50
O=C1CNc2ncc(-c3cncnc3)nc2N1CCC1CCOCC1 | 5.00 to 6.00
Cc1cc(-c2nnc[nH]2)ccc1-c1cnc2c(n1)N1CCNCC1C(=O)N2 (centres unmarked) | 6.60 to 11.30
Cc1nc(-c2nnc[nH]2)ccc1-c1cnc2c(n1)N(CC1CCCC1)CC(=O)N2 | 6.60 to 11.30
CC(C)N1C(=O)CNc2ncc(-c3ccc(-c4nc[nH]n4)nc3)nc21 | 6.60 to 11.30
C[C@@H]1Nc2ncc(-c3ccc(C(C)(C)O)nc3)nc2N(CCC2CCOCC2)C1=O | 6.00 to 6.30
CO[C@H]1CC[C@H](N2C(=O)CNc3ncc(-c4cnc(-c5nc[nH]n5)cc4C)nc32)CC1 | 6.60 to 11.30
NC(=O)c1ccc(-c2cnc3c(n2)N(CCC2CCOCC2)C(=O)CN3)cc1 | 6.60 to 11.30
Cc1cc(-c2nnc[nH]2)c(F)cc1-c1cnc2c(n1)N(CCC1CCOCC1)C(=O)CN2 | 6.60 to 11.30

###

- TARGET UNDER TEST: mTOR (Homo sapiens, UniProt P42345)
pIC50: −log10 of the molar value.
OUTCOME MEASURE: pIC50

COMPOUND | TARGET UNDER TEST | READING
CO[C@H]1CC[C@H](N2CC(=O)Nc3ncc(-c4ccc(-c5nc[nH]n5)c(F)c4C)nc32)CC1 [Example 29] | mTOR (Homo sapiens, UniProt P42345) | 6.60 to 11.30
COCCN1C(=O)CNc2ncc(-c3cccc4[nH]ncc34)nc21 [Example 188] | mTOR (Homo sapiens, UniProt P42345) | 5.00 to 6.00
CO[C@H]1CC[C@H](N2CC(=O)Nc3ncc(-c4cnc(C(N)=O)cc4C)nc32)CC1 [Example 35] | mTOR (Homo sapiens, UniProt P42345) | 6.60 to 11.30
CC(C)(O)c1ccc(-c2cnc3c(n2)N(CC2CC2)CC(=O)N3)cn1 [Example 63] | mTOR (Homo sapiens, UniProt P42345) | 6.30 to 6.60
O=C1CN(CCC2CCOCC2)c2nc(-c3cnc4nc[nH]c4c3)cnc2N1 [Example 36] | mTOR (Homo sapiens, UniProt P42345) | 6.00 to 6.30
CC(C)(C)CN1CC(=O)Nc2ncc(-c3ccc(C(C)(C)O)nc3)nc21 [Example 105] | mTOR (Homo sapiens, UniProt P42345) | 6.30 to 6.60
